- assay_procedure: yeast display, Sf9 membrane polyspecificity reagent, FACS + sequencing; frameworks hold sequencing errors
quantity_measured: polyreactivity (PSR sort gate)

Solved entries:
seq_string	polyreactivity (PSR sort gate)
QVQLVESGGVLVQAGGSLRLSCAASGSTFVTNAMGWYRQAPGKEREFVAAISNSSGSTYYADSVKGRFTISRDNAKNTVYLQMNSLKPEDTAVYYCNATPDDWLQEDYWGQGTQVTVSS	low polyreactivity
QVQLVESGGGLVQAGGSLRLSCAASGFIFKSNAMGWDRQAPGKERELVAAISTSGGSTYYADSVKGRFTISRDNAKNTVYLQMNSLKPEDTAVYYCAKRPSRYYYRLDYWGQGTQVTVSS	high polyreactivity
QVQLVESGGGLVQAGGSLRLSCAASGSTFDINAMGWYRQAPGKEWELVAAITWSGDSTYYADSVKGRFTSSRDYAKHTVSLQMNSLKPEDTAVYYCAADYPYSYYEYSSYYYWGQGTQVTVSS	low polyreactivity
QVQLVESGGGLVQAGGSLRLSCADSGSTIPKYAMGWSRQAPGKERELVAVITSGGSTYYADSVKGRFTISRDNAKNTVYLQMISLKPEDTAVYYCAARKYRRFDYWGQGTQVTVSS	high polyreactivity
QVQLVESGGGLVQAVGSLRLSCAASGRTFAFYTMGWYRPAHGKERELVAAINWSGTRTYYADSVKGRVTISRDKAKNTVYLQMNSLKPEDTAVYYCNVAFFSLSLRTLGVEYWGQGTQVTVST	high polyreactivity
QVQLVESGGGLVQAGGSLRLSCAASGFTFKKNAMGWYRQATGKERELVAAIRSGTSTKYADSVKGRFTISRDNAKNTVYLQMNSLKPEDTAVYYCAAEEPEYLATWRNRRYDYWGQGTQVTVSS	low polyreactivity
QVQLVESGGGLVQAGGSLRLSCAASGSTFGYNAMGWYRQAPGKERELVAAISWSGGSTYYADSVKGRFTISRDNAKNTVYLQMNSLKPEDTAVYYCAALTHYGGYGYTYDYWGQGTQVTVSS	low polyreactivity
QVQLVESVGGLVQAGGSLRLSCAASGSIFDSYAMGWYRQAPGKERELVADISSGGSTYYADSVKGRFTISRDNAKNTVYLQMNSLKPEDTAVYYCAAQYVYYFYGDEAFTDDYWGQGTQVTVSS	low polyreactivity
QVQIEESGGGLVQAGGSLRLSCAASGRTFNFYAMGWYRQATGKERELVAAISHGDSTYYADSVKGRFTISRDNAKNTVYLQMNSLKPEDTAVYYCAASQKYYLRKYEYWGQGTQVTVSS	low polyreactivity

// moving on: another record for polyreactivity (PSR sort gate)
Prompt line: Quick one: polyreactivity (PSR sort gate) for QVQLVESGGGLVQAGGSLRLSCAASGSTFGVYARGWYRQAPGKERELVAAIRDRGGSTYYADSVKGRFTISRDNAKNTVYLQMNSLKPEDTAVYYCATRTWWEYYYWGQGTQVTVSS ?
Response line: high polyreactivity
